The origin of these recorded values is PubChem BioAssay AID602207.

Kindly state IC50 for each of the entries shown.
biological target: Caspase-3 (Homo sapiens); experiment: inhibition of recombinant caspase-3 activity – biochemical, luminescence, Caspase-Glo 3/7, set 3, counter-screen for UBC13 polyubiquitin inhibitor project, SAR follow-up (AID 602207); details: recombinant caspase-3, Caspase-Glo luminescence, 60 min
Activity calls are given as the source filed them.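 The calls were made as follows: active = IC50 below 100 µM in the TR-FRET assay, unless also active in the caspase-3 counter assay; inactive = the rest, including compounds also active in caspase-3.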

Some entries whose results are on file:
# givenSmiles, IC50
records = [
    ("O=C(Nc1cccc(Cl)c1)C1CCN(c2ncnc3c2nc2n3CCCCC2)CC1", "> 100 µM (inactive)"),
    ("COc1cc(Cl)c(C)cc1NC(=O)C1CCN(c2ncnc3c2nc2n3CCCCC2)CC1", "> 100 µM (inactive)"),
    ("COc1ccc(NC(=O)C2CCN(c3ncnc4c3nc3n4CCCCC3)CC2)cc1Cl", "> 100 µM (inactive)"),
]

Provide IC50 for all items below, preserving their order.
1. COc1ccc(Cl)cc1NC(=O)C1CCN(c2ncnc3c2nc2n3CCCCC2)CC1
2. O=C(Nc1cc(F)ccc1F)C1CCN(c2ncnc3c2nc2n3CCCCC2)CC1
3. O=C(CCCCCN1C(=O)c2ccccc2C1=O)NCCc1ccccc1
4. Fc1ccccc1N1CCN(c2ncnc3c2nc2n3CCCC2)CC1
5. CCOc1ccc(CCNC(=O)CCCCCN2C(=O)c3ccccc3C2=O)cc1OCC
6. Cc1ccc(Cl)cc1N1CCN(c2ncnc3c2nc2n3CCCC2)CC1

Reply:
> 100 µM (inactive)
> 100 µM (inactive)
> 100 µM (inactive)
> 100 µM (inactive)
> 100 µM (inactive)
> 100 µM (inactive)
